Catalogue of Amount of degradation after 2 h readings, one per entry.
test name: Chemical stability (degradation kinetics) at pH value of ca. 1.2
Assay type: physicochemical
condition summary: pH value of ca. 1.2 (acetonitrile/0.1 M aqueous HCl 2:3), 37° C., HPLC
Method: Degradation kinetics is used to simulate chemical stability of compounds in the acidic part of the gastro intestinal tract. […] Their application as medical drugs to treat human diseases is therefore less restricted and troublesome. The chemical stability of the compounds of the invention at pH value of ca. 1.2 is determined as follows: […]
// note: answer is a bare numeric in %

Cc1cc(C(=O)NCC(C)(C)O)cc(C)c1-c1ccc(F)c2c1CC[C@H]2Oc1ccc([C@H]2C[C@@H]2C(=O)O)cc1 [WO 2013/178575 Example 15, reference compound] = 3

# input compound: Cc1c(C#N)cccc1-c1ccc(F)c2c1CC[C@H]2Oc1ccc([C@H]2C[C@@H]2C(=O)O)cc1 [WO 2013/178575 Example 54, reference compound] ; wanted: its Amount of degradation after 2 h
2.5

# input compound: Cc1cc(OCCC(C)(C)O)cc(C)c1-c1ccc(F)c2c1CC[C@H]2Oc1ccc([C@H]2C[C@@H]2C(=O)O)cc1 [WO 2013/178575 Example 17, reference compound] ; wanted: its Amount of degradation after 2 h
8

# input compound: Cc1cc(OCCCS(C)(=O)=O)cc(C)c1-c1ccc(F)c2c1CC[C@H]2Oc1ccc([C@H]2C[C@@H]2C(=O)O)cc1 [WO 2013/178575 Example 11] ; wanted: its Amount of degradation after 2 h
5

# input compound: Cc1cccc(C)c1-c1ccc(F)c2c1CC[C@H]2Oc1ccc(C2CC2C(=O)O)cc1 (some centres unmarked) [WO 2013/178575 Example 33] ; wanted: its Amount of degradation after 2 h
8
